# MEASURED TARGET: T1, RC-Fc (human)
# T1 construct: Knob-in-hole heterodimer of the R chain and the C chain, human IgG1 Fc; expressed in 293 cells, purified on Protein A; also called RC-Fc fusion protein; reconstructed CGRP receptor extracellular region
# T1 sequence (chain, as listed by the source limits assumed, chain 1 of 2): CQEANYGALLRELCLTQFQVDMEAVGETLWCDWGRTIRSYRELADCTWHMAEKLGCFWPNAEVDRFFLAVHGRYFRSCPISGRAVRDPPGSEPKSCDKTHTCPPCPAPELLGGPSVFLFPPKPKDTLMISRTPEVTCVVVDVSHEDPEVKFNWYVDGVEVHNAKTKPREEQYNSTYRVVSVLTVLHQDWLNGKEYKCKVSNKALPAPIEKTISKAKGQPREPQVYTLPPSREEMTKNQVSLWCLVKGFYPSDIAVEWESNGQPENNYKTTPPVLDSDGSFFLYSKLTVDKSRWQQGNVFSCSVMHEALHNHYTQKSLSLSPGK
# T1 sequence (chain, as listed by the source limits assumed, chain 2 of 2): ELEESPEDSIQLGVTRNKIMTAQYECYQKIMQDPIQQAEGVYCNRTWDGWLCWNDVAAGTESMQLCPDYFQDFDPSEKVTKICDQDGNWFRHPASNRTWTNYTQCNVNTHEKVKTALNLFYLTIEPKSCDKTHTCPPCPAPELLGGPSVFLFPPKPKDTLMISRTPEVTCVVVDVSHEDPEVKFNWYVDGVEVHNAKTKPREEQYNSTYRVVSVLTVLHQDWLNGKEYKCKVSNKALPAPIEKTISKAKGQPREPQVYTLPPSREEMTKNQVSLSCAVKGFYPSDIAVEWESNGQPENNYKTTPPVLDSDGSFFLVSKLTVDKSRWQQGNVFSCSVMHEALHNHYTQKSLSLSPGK
# EXPERIMENT NOTES: ELISA, RC-Fc coated, VHH-His titrated, anti-His-HRP; Exp2
QUANTITY MEASURED: pEC50
pEC50 field: float, defined as -log10 of concentration (mol/L).

BINDER	pEC50
A10-269-172 (VHH, Llama VHH with C-terminal 6xHis, expressed in 293 cells; also called N220505104) VHH: EVQVVESGGGLVQAGGSLRLSCVSSESSFSINTMRWYRQAPGKERELVASINSASSTYYGDAVKGRFTISRVNAKNTVYLQMNSLKPEDTAVYFCNTHSVLASRDYWGQGTQVTVSS	10.29

We now examine a further binder.
The reported value for A10-268-5 (VHH, Llama VHH with C-terminal 6xHis, expressed in 293 cells; also called B828601) VHH: QVQLVESGGGLVQAGGSLRLSCAVSGRTVTTITMGWFRQAPGKEREFVASISWDGLSTGYQDSVKGRFTISRDNAKNTVYLQMNSLKPEDTAVYYCAAGDSLWSWSKVPANYAYWGQGTQVTVSS in terms of pEC50 is 9.74
